biological target: PI3K γ (Homo sapiens, UniProt P48736); assay: In vitro enzyme assay PI3K γ (recombinant); conditions: recombinant γ isoform
Sequence (P48736 whole entry, species assumed, canonical isoform): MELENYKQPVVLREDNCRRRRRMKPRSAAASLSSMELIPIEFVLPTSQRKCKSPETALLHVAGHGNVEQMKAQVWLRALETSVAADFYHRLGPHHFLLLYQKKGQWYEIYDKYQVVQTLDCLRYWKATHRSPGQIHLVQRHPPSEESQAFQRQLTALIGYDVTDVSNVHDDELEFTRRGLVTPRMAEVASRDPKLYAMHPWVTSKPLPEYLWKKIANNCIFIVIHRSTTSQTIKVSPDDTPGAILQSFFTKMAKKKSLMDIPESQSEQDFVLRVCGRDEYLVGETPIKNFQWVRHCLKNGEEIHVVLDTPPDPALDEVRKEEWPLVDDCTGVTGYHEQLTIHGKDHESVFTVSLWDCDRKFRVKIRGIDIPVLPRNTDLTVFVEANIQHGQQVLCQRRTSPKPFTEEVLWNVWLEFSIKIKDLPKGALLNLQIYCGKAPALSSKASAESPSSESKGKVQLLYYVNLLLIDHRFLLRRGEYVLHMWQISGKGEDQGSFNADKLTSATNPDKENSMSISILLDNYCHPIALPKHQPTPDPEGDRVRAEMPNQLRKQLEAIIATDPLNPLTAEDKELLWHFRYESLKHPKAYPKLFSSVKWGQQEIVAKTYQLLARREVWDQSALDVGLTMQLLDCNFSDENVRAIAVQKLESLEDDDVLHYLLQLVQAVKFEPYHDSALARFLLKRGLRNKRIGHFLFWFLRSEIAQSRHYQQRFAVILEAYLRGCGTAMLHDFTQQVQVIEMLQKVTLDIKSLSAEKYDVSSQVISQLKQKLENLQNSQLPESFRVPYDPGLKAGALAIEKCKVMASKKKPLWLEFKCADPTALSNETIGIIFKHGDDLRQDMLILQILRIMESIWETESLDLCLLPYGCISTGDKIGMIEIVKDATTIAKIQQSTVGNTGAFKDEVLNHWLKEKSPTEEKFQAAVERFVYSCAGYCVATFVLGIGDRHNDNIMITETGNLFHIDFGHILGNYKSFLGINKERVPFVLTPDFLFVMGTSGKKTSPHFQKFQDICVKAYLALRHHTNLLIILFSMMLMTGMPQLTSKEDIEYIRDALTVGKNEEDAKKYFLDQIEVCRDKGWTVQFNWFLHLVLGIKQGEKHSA
readout: IC50

// known answers, use as guide
Reported IC50 ( COc1ccccc1CNc1cc(C)cn2c(=O)cc(N3CCOCC3)nc12 ) = 5 µM

Reported IC50 ( Cc1ccccc1Oc1cccc2c(=O)cc(N3CCOCC3)[nH]c12 ) = 5 µM

Reported IC50 ( O=c1cc(N2CCOCC2)[nH]c2c(Oc3ccccc3F)cccc12 ) = 2 µM

Reported IC50 ( O=c1cc(N2CCOCC2)oc2c(Cc3ccccc3)cccc12 ) = 3 µM

Now look at this one.
Reported IC50 ( Cc1cccc(Oc2cccc3c(=O)cc(N4CCOCC4)[nH]c23)c1 ) = 5 to 10 µM

----------
Would you kindly list IC50 for each of these molecules?
target: PI3K α/β isoforms; assay: In vitro enzyme assay PI3K α/β; details: immunoprecipitated from platelet lysate
Put your answer as a value accompanied by its unit after it.

// known answers, use as guide
Reported IC50 ( O=c1cc(N2CCOCC2)[nH]c2c(Oc3ccc(F)cc3)cccc12 ) = 50 nM

Reported IC50 ( O=c1cc(N2CCOCC2)oc2c(OCc3ccccc3)cccc12 ) = 100 nM

Reported IC50 ( Cc1cc(Nc2ccc(O)cc2)c2nc(N3CCOCC3)cc(=O)n2c1 ) = 100 nM

Reported IC50 ( COc1ccccc1CNc1cc(C)cn2c(=O)cc(N3CCOCC3)nc12 ) = 50 nM

Reported IC50 ( Cc1ccccc1Oc1cccc2c(=O)cc(N3CCOCC3)[nH]c12 ) = 50 nM

Reported IC50 ( Cc1cc(NCc2ccccc2)c2nc(N3CCOCC3)cc(=O)n2c1 ) = 50 nM

Reported IC50 ( Cc1cc(NCc2ccccc2Cl)c2nc(N3CCOCC3)cc(=O)n2c1 ) = 50 nM

Reported IC50 ( O=c1cc(N2CCOCC2)[nH]c2c(Oc3ccccc3F)cccc12 ) = 150 nM

Reported IC50 ( Cc1cc(Oc2cccc3c(=O)cc(N4CCOCC4)oc23)ccc1F ) = 150 nM

Reported IC50 ( O=c1cc(N2CCOCC2)oc2c(Oc3ccccc3)cccc12 ) = 100 nM

# batch: return IC50 for each of the 5 molecules below
1. O=c1cc(N2CCOCC2)[nH]c2c(Oc3ccccc3)cccc12
2. Cc1cc(F)ccc1Oc1cccc2c(=O)cc(N3CCOCC3)[nH]c12
3. O=c1cc(N2CCOCC2)[nH]c2c(Sc3ccccc3)cccc12
4. Cc1cc(Nc2ccc(O)cc2C)c2nc(N3CCOCC3)cc(=O)n2c1
5. Cc1cccc(Oc2cccc3c(=O)cc(N4CCOCC4)[nH]c23)c1

1. 100 nM
2. 20 nM
3. 50 nM
4. 100 nM
5. 50 nM

# batch: return IC50 for each of the 2 molecules below
1. Cc1cc(CNc2ccccc2)c2nc(N3CCOCC3)cc(=O)n2c1
2. O=c1cc(N2CCOCC2)oc2c(Cc3ccccc3)cccc12

1. 50 nM
2. 100 nM

----------
test system: PI 3-kinase immunoprecipitated from human platelets; experiment: In vitro PI 3-kinase assay (32P incorporation into PI); type: biochemical; details: PI 3-kinase from human platelets, PI substrate
pIC50: −log10 of the molar value.
pIC50 vs 6: at or above is MET, below is NOT MET.

For orientation, consider the following solved cases.
Please tell me: is the compound Cc1cccc(Oc2cccc3c(=O)cc(N4CCOCC4)[nH]c23)c1 [TGX-127] at or over 6 in terms of pIC50? MET

Please tell me: is the compound O=c1cc(N2CCOCC2)oc2cc(OCc3cccnc3)ccc12 [TGX-144] at or over 6 in terms of pIC50? NOT MET

Please tell me: is the compound Cc1cc(Nc2ncccc2C)c2nc(N3CCOCC3)cc(=O)n2c1 [TGX-179] at or over 6 in terms of pIC50? NOT MET

Please look at the following compound next.
Please tell me: is the compound Cc1ccccc1Oc1cccc2c(=O)cc(N3CCOCC3)[nH]c12 [TGX-115] at or over 6 in terms of pIC50? MET

// provenance: patent US7405211B2
